Assay: Exploratory single dose free drug toxicology study in rats
Assay type: in vivo, rat
Conditions: rat, in vivo; single IV dose
Exercise: for every item that follows, state its recorded MTD at 7 day.
Could you give the number and then its unit, please?

Entry `C=C1C[C@H]2C=Nc3cc(OCCCCCOc4cc5c(cc4OC)C(=O)N4CC(=C)C[C@H]4C(=O)N5)c(OC)cc3C(=O)N2C1` ; MTD at 7 day = 1 mg/kg

Entry C=C1C[C@H]2C=Nc3cc(OCCCCCOc4cc5c(cc4OC)C(=O)N4CC(=C)C[C@H]4C=N5)c(OC)cc3C(=O)N2C1 [C-1, reference compound] ; MTD at 7 day = 0.1 mg/kg

The reported measurements were obtained from patent US10639373B2.
